src = patent US20160213742A1

system: C. glabrata ATCC 90030; assay: microbe, parasite or virus in culture; type: cell-based; details: ATCC 90030, pH 7
endpoint: MIC

given-smiles	MIC
CC[C@H](C)C[C@H](C)CCCCCCCCC(=O)N[C@H]1C[C@@H](O)[C@@H](NCCNC(=O)[C@H](Cc2ccccc2)NC(=O)[C@H](CC(C)C)NC(=O)[C@H](CCSC)NC=O)NC(=O)[C@@H]2[C@@H](O)CCN2C(=O)[C@H]([C@H](O)CCN)NC(=O)[C@H]([C@H](O)[C@@H](O)c2ccc(O)cc2)NC(=O)[C@@H]2C[C@@H](O)CN2C(=O)[C@H]([C@@H](C)O)NC1=O	4 µg/mL

Q: Quick one: MIC for CC[C@H](C)C[C@H](C)CCCCCCCCC(=O)N[C@H]1C[C@@H](O)[C@@H](NCCNC(=O)CCNC(=O)[C@H](Cc2ccccc2)NC(=O)[C@H](CC(C)C)NC(=O)[C@H](CCSC)NC(C)=O)NC(=O)[C@@H]2[C@@H](O)CCN2C(=O)[C@H]([C@H](O)CCN)NC(=O)[C@H]([C@H](O)[C@@H](O)c2ccc(O)cc2)NC(=O)[C@@H]2C[C@@H](O)CN2C(=O)[C@H]([C@@H](C)O)NC1=O ?
A: 4 µg/mL
